# assay.comment: yeast display, Sf9 membrane polyspecificity reagent, FACS + sequencing; frameworks hold sequencing errors
measurement.name: polyreactivity (PSR sort gate)

Previously resolved entries follow.
QVQLVESGGGLVQAGGSLRLSCAASGSIFSIYAMGWYRQAPGKERELVASITRSSGRTYYADSVKGRFTISRDNAKNTVYLQMNSLKPEDTAVYYCAKDYIPLALDADDYWGQGTQVTVSS	low polyreactivity
QVQLVESGGGLVQAGGSLRLSSAASGSIFGDYVMGWSRQAPGKERELVAAINRGGSTYYADSVKGRFTISRDNAKNTVYLHMNSLKPEDTAVYYCAAGYPSWYYGDPYDSWGQGTQVTVSS	low polyreactivity
QVQLVESGGGLVQAGGSLRLSCAASGRTFQRYTMGWYRQAPGKERELVASISRSGGSTYYADSVKGRFTISRDNAKNTVYLQMNSLKPEDTAVYYCATRSLFWNRNHYRVSSPVLFDYWGQGTQVTVSS	high polyreactivity
QVQLVESGGGLVQAGGSLRLSCAASGSTFSLYMGWYRQAPGKERELVAAITYSGGRTYYADSVKGRFTITLDNAKNTFYLQMNSVNPEDTAVYYCATVFNDLTVYEDWSRFDYWGQGTQVTVSS	low polyreactivity
QVQLVESGGGLVQAGGSLRLSCAASGSTFEYYGMGWYRQAPGKERELVATITSGGSTNYADSVKGRFTISRDNAKNTVYLQMNSLKPEDTAVYYCAVDISNSLGGGFGYDYWGQGTQVTVSS	low polyreactivity
QVQLVESGRGLDQAGGSLRLICYASGRTFLYNAMGWFRQSPGKERELVAAIRWSGGTTYYADSVKGRFTISRDNSKNNVYLQMNSLKPEDTAIYYCAARWGQYYGGVRYGYWGQGTQVTVSS	high polyreactivity
QVQLVESGGGLVQAGGSLRISSAPSGITYYGNVMGWYRQAPGKERELVADISWSGGRTYYADSVKGRFTISRDNAKNTVYLQITSLKPEVTALYDCAAEGTTNRGVYASYDYWGQGTQVTVSS	low polyreactivity
QVQLVESGGGLVQAGGSLRLSCAASGRTFRRYAMGWYRQAPGKEREFVAAIRYSGGITYYADSVKGRFTISRDNAKNTVYLQMNSLKPEDTAVYYCAAYGWGNRWYSRFDYWGQGTQVTVSS	high polyreactivity
QVQLVESGGGLVQAGGSLRLSCAASGITFHRNTMGWYRQAPGTETELVDSITSGGITYYADSVKGSFTISRDNEKNTVYLQMNSLKPEDTAVYYCAAEGYWTYWVARSDIPYFYWGQGSQVTVSS	high polyreactivity
QVQLVESGGGLDLAGGSLRLTCAASGSTFTYYAMGWYRQAPGKERELVAAISWRGASTYYADSVKGRFTISRDNAKNTVYLQMNSLNPEDTAVNYCNAVKQRSSIFDYWGQGTQVTVSS	low polyreactivity

Respond only with polyreactivity (PSR sort gate) recorded for QVQHVESGGGLVQAGGSLRLSCAPSGITFYTYTMGWYRQAHGKERQLVAVISASGARTYYADSVKGRFTISRDNAKNTVYLQMNSLKPEDTAVYYCAARSYFISPWRFDYWGQGTQVTVSS
high polyreactivity

Respond only with polyreactivity (PSR sort gate) recorded for QVQLVESGRGLVQAGGSLRLSCAASGSIFEINAMGWYRQAPGIERELVAAITGSGGSTHYADSVKGRFTISRDNAKNTVSLQMNSLKPEDTAVYYCAAVPRYQYGYWGQGTQVTVSS
low polyreactivity

Respond only with polyreactivity (PSR sort gate) recorded for QVQLQESGGGQVQAGGTITLGYDMGWYRQAPGKEREFVAGIDTGAITYYADSVKGRFTNSRDNAKNTVYLQMNSLKPEDTAVYYCAAIQTHTYAHSYWGQGTQVTVSS
high polyreactivity

Respond only with polyreactivity (PSR sort gate) recorded for QVQLVESGGGLVQAGGSLRLSCAASGFTFGSYAMGWYRQAPGKEREFVAAIRRSGSSTYYADSVKGRFTISRDNAKNTVYLQMNSLKPEDTAVYYCAADVYRRLRRYRYYYWGQGTQVTVSS
low polyreactivity

Data provenance: the nanobody polyreactivity screen of Harvey et al. (2022)
